Species: Homo sapiens
test.protocol: Inhibition of LTB4 biosynthesis at 1 uM, in calcium ionophore-stimulated human whole blood leukocyte (HBL) assay.
Type: functional
# Lookup of reported inhibition at 1 µM keyed by entry

{"columns": ["molecule", "measure.unit", "inhibition at 1 µM"],
 "data": [
  ["Cc1oc(-c2ccco2)nc1CCOc1ccc(CN(O)C(N)=O)cc1", "%", 64],
  ["Cc1oc(-c2ccc(C(F)(F)F)cc2)nc1COc1cccc(CN(O)C(N)=O)c1", "%", 48],
  ["COc1cc(CN(O)C(N)=O)cc(OCc2nc(-c3ccc(C(F)(F)F)cc3)oc2C)c1", "%", 0],
  ["NC(=O)N(O)Cc1cccc(OCc2csc(-c3ccc(Cl)cc3)n2)c1", "%", 68],
  ["COc1cc(CN(O)C(N)=O)ccc1OCc1nc(-c2ccccc2)oc1C", "%", 19],
  ["NC(=O)N(O)Cc1cccc(OCc2csc(-c3ccccc3)n2)c1", "%", 66],
  ["NC(=O)N(O)Cc1cccc(OCCc2csc(-c3ccc(C(F)(F)F)cc3)n2)c1", "%", 30],
  ["Cc1oc(-c2cccs2)nc1CCOc1ccc(CN(O)C(N)=O)cc1", "%", 64],
  ["NC(=O)N(O)Cc1ccc(OCc2csc(-c3ccc(C(F)(F)F)cc3)n2)cc1", "%", 56],
  ["Cc1oc(-c2cc(C(F)(F)F)cc(C(F)(F)F)c2)nc1COc1cccc(CN(O)C(N)=O)c1", "%", 15],
  ["Cc1oc(-c2ccc(Cl)cc2)nc1COc1cccc(CN(O)C(N)=O)c1", "%", 77],
  ["COc1ccc(-c2nc(COc3cccc(CN(O)C(N)=O)c3)cs2)cc1", "%", 50],
  ["NC(=O)N(O)Cc1ccc(OCCc2coc(-c3ccccc3)n2)cc1", "%", 47],
  ["Cc1oc(-c2ccc(C(F)(F)F)cc2)nc1CCOc1ccc(CN(O)C(N)=O)cc1F", "%", 36],
  ["NC(=O)N(O)Cc1ccc(OCc2coc(-c3ccccc3)n2)cc1", "%", 58],
  ["Cc1oc(-c2cccc(C(F)(F)F)c2)nc1COc1cccc(CN(O)C(N)=O)c1", "%", 51],
  ["Cc1oc(-c2ccccc2)nc1CCOc1cccc(C(C)N(O)C(N)=O)c1 (stereo not drawn)", "%", 34],
  ["COc1ccc(-c2nc(CCOc3ccc(CN(O)C(N)=O)cc3)c(C)o2)cc1", "%", 57],
  ["NC(=O)N(O)Cc1ccc(OCc2coc(-c3ccc(C(F)(F)F)cc3)n2)cc1", "%", 32],
  ["COc1ccc(-c2nc(COc3ccc(CN(O)C(N)=O)cc3)cs2)cc1", "%", 56],
  ["NC(=O)N(O)Cc1ccc(OCc2csc(-c3ccc(Cl)cc3)n2)cc1", "%", 71],
  ["Cc1oc(-c2ccc(C(F)(F)F)cc2)nc1COc1cc(F)cc(CN(O)C(N)=O)c1", "%", 15],
  ["Cc1oc(-c2ccccc2)nc1COc1ccc(CN(O)C(N)=O)cc1", "%", 50],
  ["Cc1oc(-c2ccc(F)cc2)nc1COc1cccc(CN(O)C(N)=O)c1", "%", 74],
  ["Cc1oc(-c2ccccc2)nc1CCOc1ccc(CN(O)C(N)=O)cc1", "%", 55],
  ["Cc1oc(-c2cccc(F)c2)nc1CCOc1ccc(CN(O)C(N)=O)cc1", "%", 63],
  ["Cc1oc(-c2ccccc2F)nc1CCOc1ccc(CN(O)C(N)=O)cc1", "%", 54],
  ["Cc1oc(-c2ccc(C(F)(F)F)cc2)nc1COc1ccc(CN(O)C(N)=O)cc1", "%", 34],
  ["Cc1oc(-c2ccccc2)nc1COc1cc(F)cc(CN(O)C(N)=O)c1", "%", 70],
  ["NC(=O)N(O)Cc1ccc(OCCc2csc(-c3ccc(C(F)(F)F)cc3)n2)cc1", "%", 57],
  ["Cc1oc(-c2ccc(F)cc2)nc1CCOc1ccc(CN(O)C(N)=O)cc1", "%", 70],
  ["Cc1oc(-c2ccccc2)nc1COc1cccc(C(C)N(O)C(N)=O)c1 (stereo not drawn)", "%", 10],
  ["CCCCCCc1nc(CCOc2ccc(CN(O)C(N)=O)cc2)c(C)o1", "%", 44],
  ["Cc1oc(-c2ccccc2)nc1COc1ccc(C(C)N(O)C(N)=O)cc1 (stereo not drawn)", "%", 17],
  ["Cc1oc(-c2ccccc2)nc1CCOc1ccc(C(C)N(O)C(N)=O)cc1 (stereo not drawn)", "%", 0],
  ["NC(=S)N(O)Cc1ccc(OCc2csc(-c3ccc(Cl)cc3)n2)cc1", "%", 57],
  ["Cc1oc(-c2ccccc2)nc1COc1ccc(CN(O)C(N)=O)cc1F", "%", 47],
  ["Cc1oc(-c2ccccc2)nc1COc1cccc(CN(O)C(N)=O)c1", "%", 52]
]}
